Assay: yeast display, Sf9 membrane polyspecificity reagent, FACS + sequencing; frameworks hold sequencing errors
Assay Metric: polyreactivity (PSR sort gate)

Observe how each entry below is paired with its result.
[[record]]
sequence_input = "QVQLVESGGGLVQAGGSLRLSCAASGRIFFIYVMGWYRQAPGKERELVAGITRGGSTNYADSVKGRFTISRDNAKNTVYLQMNSLKPEDTAVYYCAAAVLSYRHAHAGYYYGKGDYWGQGTQVTVSS"
assay_metric = "polyreactivity (PSR sort gate)"
assay_result = "high polyreactivity"

[[record]]
sequence_input = "QVQLVESGGGLVQAGGSLRLSCAASGSTFVYYAMGWYRKAPGKERELVAAITSSGGSTHYADSVKGRFTISRDNAKNTVYLQMNSLKPEDTAVYYCAVGALGVYGHYGYWGQGTQVTVSS"
assay_metric = "polyreactivity (PSR sort gate)"
assay_result = "low polyreactivity"

[[record]]
sequence_input = "QVQLVESGGGLVQAGGSLRLSCAASGRTLSWYAMGWYRQAPGKEREFVAAITSSGASTYYADSVKGRFTISRDNAKNTVYLQMNSLKPEDTAVYYCAAEAVYVSSWYDEYYYFRYDYWGQGTQVTVSS"
assay_metric = "polyreactivity (PSR sort gate)"
assay_result = "high polyreactivity"

[[record]]
sequence_input = "QVQLVESGGGLVQAGGSLRLSCAGSGSIYSYNAMGWYRQAPGKERELVAAIDWSGGSTYYADSVKGRFTLSRDNAKNTVYLQMNSLKPEDTAVYYEYDYWGQGTQVTVSS"
assay_metric = "polyreactivity (PSR sort gate)"
assay_result = "low polyreactivity"

[[record]]
sequence_input = "QVQLEESGGGLVQAGGSLRLSCAASGNIFPRYAMGWYRQAPGKERELVAAISYSGARTYYADSVKGRFTISRDNAKNTVYLQMNSLKPEDTAVYYCNKRVYYPWGQGTQVTVSS"
assay_metric = "polyreactivity (PSR sort gate)"
assay_result = "high polyreactivity"

[[record]]
sequence_input = "QVQLVESGGGLVQAGGSLRLSCAASGSIFFYYAMGWYRQAPGKERELVAAINWSGVNTYYADSVKGRFTISRDNAKNTVYLQMNSLKPEDTAVYYFNAVVSLTSYGYLGYLFDYWGQGTLVTVSS"
assay_metric = "polyreactivity (PSR sort gate)"
assay_result = "low polyreactivity"

[[record]]
sequence_input = "QVQLVESGAGLVQAAGSLRISSAHSGFSFTYNAMGWYRQAPGKVTEFVASISRSGGRTYYADSVKGRFTISRDNANNTVYLQMNSLKPEDTAVYYCAARNAYVYGMDSWGKGTQVTVSS"
assay_metric = "polyreactivity (PSR sort gate)"
assay_result = "low polyreactivity"

[[record]]
sequence_input = "QVQLVESGGGLVQAGGSLRLSCAASGSIFDYNAMGWYTQAPGKERELVAAITSGGSTNYADSVKGRFTISRDNAKNTVYLQMNTLKPEDTAVYYCAADHDYYPTNLDYWGQGTQVTVSS"
assay_metric = "polyreactivity (PSR sort gate)"
assay_result = "low polyreactivity"

[[record]]
sequence_input = "QVQLVESGGGLVQAGVSLRLSCAASGRTFVWYVKGWYRQAPGKERELVAAINRSGGRTYYADSVKGRFTISRDNAKNTVYLQMNSLKPEDTAVYYCAAARYVRYYSGYWGQGTQVTVSS"
assay_metric = "polyreactivity (PSR sort gate)"
assay_result = "high polyreactivity"

[[record]]
sequence_input = "QVQLVESGGGLVQAGGSLRLSCAASGSIFNRYAMGWYRPAPGKEREFVARISKRGGGTYYADSVKGRFTISRDNAKNTVYLQMNSLKPEDTAVYYCAARAYDHTGHVGFDYWGQGTQVTVSS"
assay_metric = "polyreactivity (PSR sort gate)"
assay_result = "high polyreactivity"


Next item in the queue.
Quick one: polyreactivity (PSR sort gate) of `QVQLVESGGGLVQAGGSLRLSCAASGFTFSHYAMGWYRQAPGKERELVAAISWGGGSTYYADSVKGRFTISRDNAKNTVYLQMNSLKPEDTAVYYCARDVVYRGYYYGAFVYWGQGTQVTVSS` ?
low polyreactivity
